Molecular target: human PAD4 (hPAD4) (Homo sapiens (Human), UniProt Q9UM07)
Sequence (Q9UM07 whole entry): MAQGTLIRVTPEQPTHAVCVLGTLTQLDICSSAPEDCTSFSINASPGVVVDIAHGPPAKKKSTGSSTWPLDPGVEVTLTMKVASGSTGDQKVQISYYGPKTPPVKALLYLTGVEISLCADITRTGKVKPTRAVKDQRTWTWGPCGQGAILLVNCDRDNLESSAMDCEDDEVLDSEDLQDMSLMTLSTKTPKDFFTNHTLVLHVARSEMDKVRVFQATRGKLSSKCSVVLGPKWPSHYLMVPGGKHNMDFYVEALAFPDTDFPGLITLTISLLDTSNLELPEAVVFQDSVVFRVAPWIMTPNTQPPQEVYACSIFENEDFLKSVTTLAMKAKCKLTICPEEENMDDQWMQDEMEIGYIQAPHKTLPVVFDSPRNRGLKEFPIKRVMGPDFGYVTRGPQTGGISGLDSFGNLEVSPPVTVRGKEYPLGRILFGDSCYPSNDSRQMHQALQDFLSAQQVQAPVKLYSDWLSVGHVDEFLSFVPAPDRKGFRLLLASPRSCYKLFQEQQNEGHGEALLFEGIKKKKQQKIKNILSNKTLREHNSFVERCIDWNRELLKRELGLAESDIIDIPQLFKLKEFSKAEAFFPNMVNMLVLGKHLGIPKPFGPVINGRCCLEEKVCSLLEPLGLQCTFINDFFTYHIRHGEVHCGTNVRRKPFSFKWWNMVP
Assay: RFMS Human PAD4 Functional Assay 1
Type: biochemical
Conditions: RFMS assay 1; 5 nM hPAD4, 250 μM BAEE substrate, 50 μM calcium, 37° C.
Sorting guide: entries reporting IC50 beneath 100 nM go in the yes (1) pile, the rest go in the no (0) pile.

Answer whether the molecule Cc1c(-c2cc3ccc(-c4ccc5c(c4)C(=O)NC5)nc3n2CC2CC2)nn2cc(C(=O)N3CC4CCC3[C@@H]4N)ccc12 (stereo partly drawn) has IC50 strictly less than 100 nM
yes (1)

Try COc1cc(C(=O)N2C[C@H](N)C[C@@H](F)C2)cn2nc(-c3cc4ccc(N5C[C@H](N)C[C@@H](F)C5)cc4n3CC3CC3)c(C)c12 next.
yes (1)

Try Cc1c(-c2cc3cccnc3n2CC2CC2)oc2cc(C(=O)N3C[C@H](N)C[C@@H](F)C3)ccc12 next.
no (0)

Try Cc1cc(C(N)=O)c(F)cc1-c1ccc2cc(-c3nn4cc(C(=O)N5CC6CCC5[C@@H]6N)ccc4c3C)n(CC3CC3)c2n1 (stereo partly drawn) next.
yes (1)

Try Cc1c(-c2cc3ccc(OC[C@@H]4CCC(=O)N4)nc3n2CC2CC2)nn2cc(C(=O)N3CC4CCC3[C@@H]4N)cc(F)c12 (stereo partly drawn) next.
no (0)

Try COC(C)(C)C(=O)N1CCC(c2cc(F)cc3cc(-c4nn5cc(C(=O)N6C[C@H](N)C[C@@H](F)C6)ccc5c4C)n(CC4CC4)c23)CC1 next.
no (0)

Try Cc1c(-c2cc3ccc(C(C)(O)C(F)(F)F)nc3n2CC2CC2)nn2cc(C(=O)N3CC4CCC3[C@@H]4N)cc(F)c12 (stereo partly drawn) next.
yes (1)

Try Cc1c(-c2cc3cccc(C4CCN(C(=O)C5CC(O)C5)CC4)c3n2CC2CC2)nn2cc(C(=O)N3CC4CCC3[C@@H]4N)ccc12 (mixture of isomers) next.
yes (1)

Try COc1cc(C(=O)N2CC3CCC2[C@@H]3N)cn2nc(-c3cc4ccc(-c5cnn(C(C)C)c5)nc4n3CC3CC3)c(C)c12 (stereo partly drawn) next.
no (0)

Try Cc1c(-c2cc3ccc(-c4ccn5c(C)nnc5c4)nc3n2CC2CC2)nn2cc(C(=O)N3CC4CCC3[C@@H]4N)ccc12 (stereo partly drawn) next.
yes (1)

Try Cc1c(-c2cc3ccc(N4CCOCC4)nc3n2CC2CC2)nn2cc(C(=O)N3CC4CCC3[C@@H]4N)cc(F)c12 (stereo partly drawn) next.
no (0)

Try COc1cc(C(=O)N2C[C@H](N)C[C@@H](F)C2)cn2nc(-c3cc4cccc(C5CCN(C(=O)[C@H](C)OC)CC5)c4n3CC3CC3)c(C)c12 next.
yes (1)

Try Cc1cc(C(N)=O)c(F)cc1-c1ccc2cc(-c3nn4cc(C(=O)N5CCC[C@@H](N)C5)cc(F)c4c3C)n(CC3CC3)c2n1 next.
no (0)

Try Cc1c(-c2cc3ccc(N4CCC(N(C)S(C)(=O)=O)CC4)cc3n2CC2CC2)nn2cc(C(=O)N3CCC[C@@H](N)C3)ccc12 [Example 360] next.
no (0)

Try COc1cc(C(=O)N2C[C@H](N)C[C@@H](F)C2)cn2nc(-c3cc4ccc(N5CCC(OC)CC5)cc4n3CC3CC3)c(C)c12 next.
no (0)

Try Cc1c(-c2cc3cccc(C4CCN(C(=O)C5CC(O)C5)CC4)c3n2CC2CC2)nn2cc(C(=O)N3CCC[C@@H](N)C3)cc(F)c12 (mixture of isomers) next.
no (0)

Try COc1cc(C(=O)N2CCC[C@@H](N)C2)cn2nc(-c3cc4cccc(C5CN(C(=O)[C@H](C)OC)C5)c4n3CC3CC3)c(C)c12 next.
no (0)

Try Cc1c(-c2cc3cccc(C4CN(C(=O)C5CCCCO5)C4)c3n2CC2CC2)nn2cc(C(=O)N3CCC[C@@H](N)C3)ccc12 (mixture of isomers) next.
no (0)

Try Cc1c(-c2cc3ccc(-c4cccc(O)c4F)nc3n2CC2CC2)nn2cc(C(=O)N3CC4CCC3[C@@H]4N)ccc12 (stereo partly drawn) next.
yes (1)

Try COc1cc(C(=O)N2C[C@H](N)C[C@@H](F)C2)cn2nc(-c3cc4ccc(-c5cccc(-c6nn[nH]n6)c5)cc4n3CC3CC3)c(C)c12 next.
no (0)

Try COc1cc(C(=O)N2CCC[C@@H](N)C2)cn2nc(-c3cc4cccc(OCC5CC(=O)N(C)C5)c4n3CC3CC3)c(C)c12 (single isomer, unassigned) [Example 551] next.
no (0)

Try Cc1c(-c2cc3cccc(OCCn4cc(N)cn4)c3n2CC2CC2)nn2cc(C(=O)N3CCC[C@@H](N)C3)ccc12 next.
no (0)

Try COCC(=O)N1CCC(c2cc(F)cc3cc(-c4nn5cc(C(=O)N6CCC[C@@H](N)C6)cc(OC)c5c4C)n(CC4CC4)c23)CC1 next.
no (0)

Try Cc1c(-c2cc3ccc(-c4ccc5c(c4)CNC5=O)cc3n2CC2CC2)nn2cc(C(=O)N3C[C@H](N)C[C@@H](F)C3)ccc12 next.
no (0)
